Where do the numbers come from? From the supplement of paper PMC12042874.

# experimental-details: amyloid nucleation score (Sup35N fusion, yeast selection) (log enrichment); library NNK3; higher = more nucleation; inactive = no reads after selection;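 also: zero at mode of non-aggregating sequences after 7 days selection at 30°C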
quantity: amyloid nucleation score

MWFTLKMYTMRCCFEVTLRK ... inactive
VETSCGRMHVLHLTGSGYSM ... inactive
IFSLYMGASCMWLMIVGWLD ... inactive
TACLSVQMWFRFSVFSGVYL ... inactive
LSNDQSDTMEKCRRSVTLW ... inactive

Lookup: Using the record for ADMGGSVGHVSNKSVSSNLL , state its measured amyloid nucleation score.
Found: inactive

Lookup: Please indicate amyloid nucleation score recorded for PCECTNHLACDNIPMRYTE
Found: inactive

Lookup: Return the recorded amyloid nucleation score value; entry: MFNSFTNWLRQDQCRTIIGS
Found: inactive

Lookup: Tell me measured amyloid nucleation score for LEDRACVFNKLIVLQ please.
Found: inactive

Lookup: Give the reported amyloid nucleation score for this substance. WNYHFPSS
Found: 0.339

Lookup: Fill in amyloid nucleation score for record VSDRCFKSTWSLMFYMGVVV
Found: inactive

Lookup: Please look at this substance and report its amyloid nucleation score: QDLSYRVGLFWDRSIVLNWY
Found: inactive

Lookup: Dear colleague, please send me the reported amyloid nucleation score for TNIYKARL when you can.
Found: inactive

###

In this section we review reported amyloid nucleation score values for a set of substances.
# experimental-details: amyloid nucleation score (Sup35N fusion, yeast selection) (log enrichment); library NNK1; higher = more nucleation; inactive = no reads after selection
Output: the number by itself.

Known amyloid nucleation score results, listed for orientation:
VGDVTGF ... 0.154
VKTPTDRSYRLHGNFIGCWA ... -0.576
FGLYVYLPEGRHACVALRTV ... -0.89
STCSPKELQFMSYVCWVKFC ... 3.32
AVIVVV ... 0.175
IIQSSTGLWFIIRKVDATYV ... 0.812
NTCHKIDSTI ... -0.13
MVGQYRYLSPYGW ... 0.724

// next entry
Lookup: Fill in reported amyloid nucleation score for this entry: LATNFCDTMRYVNGFRIAWC
Found: 0.647

###

# experimental-details: amyloid nucleation score (Sup35N fusion, yeast selection) (log enrichment); library NNK2; higher = more nucleation; inactive = no reads after selection
The entries below are paired with their reported amyloid nucleation score.
// no unit string in output, number only

Worked set:
SCYLALKFTFRLFVLKSEGL ... -0.202
CQSAASVL ... -0.148
SDTGGSVYMKTVGRTHLTYD ... -0.252
LDVKERTCL ... 0.261
ISGWYVVSSVS ... 0.912
IKISNLTTKVMSHFVSGVAK ... -0.982

Lookup: Entry PLLVLVNFLSGKSPQAHCSH needs its amyloid nucleation score filled in; supply it.
Found: 3.07

Lookup: Report amyloid nucleation score for VSKNYDHCELRHMECAYWYT
Found: 0.211

Lookup: Name the recorded amyloid nucleation score of the item CRLVEAEYSSRKRLQVSLWA in your answer.
Found: 0.102

Lookup: Report amyloid nucleation score, nothing else, for this substance: HQIHLSY
Found: -0.593

Lookup: Read off the recorded amyloid nucleation score for KGCEIFLVLAMCDKCSGFL
Found: 3.69

Lookup: Check the records and state amyloid nucleation score for KGNHRRVKTSIYNFFKVSNC
Found: 0.445

Lookup: Return amyloid nucleation score for the following substance: LFDLWSVEFC
Found: -0.392

Lookup: // Input: TYCHYVADFLPLFRFRISGG . Output its amyloid nucleation score only.
Found: 3.1

Lookup: State its amyloid nucleation score for this substance: HVADTGLIMQYVVSGLRVAG
Found: 0.602

Lookup: Please report amyloid nucleation score for the following substance: ITSVKHCAS
Found: 1.05

###

# experimental-details: amyloid nucleation score (Sup35N fusion, yeast selection) (log enrichment); library NNK2; higher = more nucleation; inactive = no reads after selection
# amyloid nucleation score listing for each entry below
A bare number is all that is needed in reply.

Some sequences with known amyloid nucleation score results, for comparison:
HWSYKDSLWVLDAAESVNMS ... 0.622
EWFNRSRYKCHRRHVLMAMV ... 0.343
NMSCKFSNPWNWFD ... -0.11
MVLASAAKVMEVLNSKQFT ... 1.42
DTKRVSINVRDNVTLRSFSW ... -0.392
SGVKLYRLRRLCLFSRGKFA ... 4.09
YSEWSSTRPQFRTLNHEWLL ... 0.498
RFWLNCCWRTCSTTFLNWMK ... 0.472

Lookup: Report measured amyloid nucleation score; entry is DRTDVCWSSGHDHLDLCWMS
Found: 0.273

Lookup: Identify amyloid nucleation score associated with the sequence VEVGLIVGSCSILI
Found: -0.525

Lookup: Determine from records and report amyloid nucleation score for GSSKFPDFSISLMYELFDI
Found: -0.91

Lookup: Could you please provide reported amyloid nucleation score for LRVRGRFLNSWSASPRSSDY ? Thanks!
Found: 3.58

Lookup: Please report amyloid nucleation score for the following sequence: CCVGGVPV
Found: 2.57

Lookup: Output amyloid nucleation score of VVRPVTLRFCTKGGMYSSVG
Found: 0.407

Lookup: Indicate the recorded amyloid nucleation score value for this sequence: SHGCGHRL
Found: -0.051

Lookup: Identify measured amyloid nucleation score corresponding to SDGVNIMK
Found: 2.83

###

# experimental-details: amyloid nucleation score (Sup35N fusion, yeast selection) (log enrichment); library NNK3; higher = more nucleation; inactive = no reads after selection
quantity: amyloid nucleation score

In the examples that follow, each entry is paired with its recorded amyloid nucleation score.
YEVSTRRRVM ... inactive
IKNHIIVRIDFGLYGEEKDS ... 0.399
ASHHVDSTYDTYYWQHKAKK ... inactive
LFGNSNRSGCSSLRQIGCLC ... inactive
VGTLRSAGIIMVSRELVMRV ... inactive
RCPTPTWSINGPC ... inactive
SDRFYHCTFHAVTVRWKQRV ... inactive
SIRYFRLSGMMSMYFFCFVV ... 0.952

Lookup: Look up and state reported amyloid nucleation score for SVRGITQLSSTLHVRLVITS
Found: inactive

###

# experimental-details: amyloid nucleation score (Sup35N fusion, yeast selection) (log enrichment); library NNK1; higher = more nucleation; inactive = no reads after selection
# amyloid nucleation score >= -0.3 gives t, anything below gives f

Answered examples (2):
CRSYNYLIVMKDLLPSALKT ... t
RSETGMYSAHACLL ... f

Lookup: Does amyloid nucleation score meet or surpass -0.3 for SESYEFVVHLHMESLRKLN ?
Found: t

Lookup: Decide: is the reported value of amyloid nucleation score for GKFVFWWVRSVYDQMAVPGM equal to or greater than -0.3?
Found: f

Lookup: Entry YPTSCVYMCQQAKPFLVLIL : is its amyloid nucleation score no less than -0.3?
Found: f

Lookup: Textbook exercise: given the entry LNYLYDIMLSSLTSQTDSMS , state whether its amyloid nucleation score is greater than or equal to -0.3.
Found: f

Lookup: Textbook exercise: given the entry FMRYNCNCKWDYFFRDCPAG , state whether its amyloid nucleation score is greater than or equal to -0.3.
Found: f

###

# experimental-details: amyloid nucleation score (Sup35N fusion, yeast selection) (log enrichment); library NNK3; higher = more nucleation; inactive = no reads after selection
quantity: amyloid nucleation score

Here are 5 substances together with their reported answers.
YCVMNSAINSLRSMAIWSFA ... inactive
KLVFTIRVF ... inactive
HRSISLRLYWNIHVKCFLTY ... inactive
VWDRRK ... inactive
KYEVCSYFNLCGEGKYRTVV ... inactive

Lookup: Annotate the substance RHVNCLAQLSDCKLTIM with its measured amyloid nucleation score.
Found: 0.396

Lookup: Note amyloid nucleation score for the substance shown: LCNFKDSADNWVSVGGNVGE
Found: inactive

Lookup: Given YMIATGTVGWNRLTLKCVVV , respond with its amyloid nucleation score.
Found: inactive

Lookup: Please give measured amyloid nucleation score of the following entry: SYAQGH
Found: 0.901

Lookup: Determine its reported amyloid nucleation score: IRSNGTFTPWEPLSVIWCTK
Found: inactive

Lookup: Please give the documented amyloid nucleation score of QNTGLYVN
Found: inactive

Lookup: Specify reported amyloid nucleation score for the substance shown: RGTVSQFVMAVNWFTSFVKR
Found: inactive

###

# experimental-details: amyloid nucleation score (Sup35N fusion, yeast selection) (log enrichment); library NNK1; higher = more nucleation; inactive = no reads after selection
quantity: amyloid nucleation score

The examples below pair each entry with its known result.
NCTWITGIFS ... 0.044
SKMILEV ... inactive
LVNVCFRWNLKCYYQSSEYA ... 0.518
GFYGRL ... -0.774
VFAVERCDFSLRPNVMLVSY ... 1.08

Lookup: Assign amyloid nucleation score to the following record: PCDSICALFALSKHQVGGGW
Found: 0.324

Lookup: Please give measured amyloid nucleation score of the following entry: RGSQGLVNLYIAFPMECLGI
Found: 3.73

Lookup: Output measured amyloid nucleation score for this item: NSYLCCIWK
Found: 7.32

Lookup: Specify amyloid nucleation score for NVDFLISQSRIFYIERLSSQ and stop.
Found: 2.77

Lookup: Supply recorded amyloid nucleation score for IAGIEGPI here.
Found: -0.182

Lookup: Item IRMLSRSLSKMSIIFHGGKG : provide amyloid nucleation score
Found: 1.33

Lookup: Report amyloid nucleation score for SNKFKPVWRVLMSRVSVEAW
Found: -0.133

Lookup: Supply reported amyloid nucleation score belonging to this substance: GSNIVSEYERLGRIMSV
Found: -0.509

Lookup: Assign amyloid nucleation score to the following record: TRNSDNVWKFEGVFHNLETW
Found: 0.43

Lookup: Name the recorded amyloid nucleation score of the substance listed here: LSMWSRHSMTPRFFLGLTPV
Found: 0.766

Lookup: Consider the substance FSALYPGREISA . State its measured amyloid nucleation score.
Found: 1.51

Lookup: Give me measured amyloid nucleation score, please, for this substance: KLDCMVDDICGTSGTVFLCL
Found: 4.85

Lookup: Supply recorded amyloid nucleation score for SVTALKLDSSLQKSRDLVGG here.
Found: -0.233
